FYI, the data here is from paper PMC12136788.

Assay System: T1, UNK ZnF1-3 (human, UniProt Q9C0B0 31-174)
T1 sequence: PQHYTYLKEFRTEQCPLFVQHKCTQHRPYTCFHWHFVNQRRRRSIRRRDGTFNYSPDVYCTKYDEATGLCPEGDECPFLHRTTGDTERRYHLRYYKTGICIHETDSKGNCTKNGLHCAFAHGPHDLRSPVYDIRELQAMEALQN
Assay Text: nsRBNS (natural sequence RNA bind-n-seq); RBNS binding buffer (assumed for nsRBNS): 25 mM Tris pH 7.5, 150 mM KCl, 3 mM MgCl2, 0.01% Triton X-100, 500 ug/ml BSA, 20 U/ml SUPERase-In, 4 C; UNK is unkempt and MSI1 is Musashi-1; names of the RNAs are library labels; protein concentration not given here; high values mean tight binding
Whole data set: some 24,000 sequences, median “enrichment r” near 0.99, cut for the highest 2% near 3.7. Many of the other results were omitted from the sample, so the highest values are more common in it than they were.
Record form. Attribute: binding signal. Fill in for each entry.
API: value field is a number in enrichment R; no unit string.

Report binding signal, nothing else, for this binder: 52131286_52135943_886_CDS_ENSMUSG00000022637_ENSMUST00000114471|mouse|control|control (ssRNA) RNA: GGGAGUUCUACAGUCCGACGAUCCGUGAGAAAUGCCAUGUAUCCCGGGUGAGUCACAGCCAAGAAGUUCCAAUUCCGUAAAAUAGAGCCCCAGGGCUGAAAUAGCCUGGUAAAAAUAUCAAAUUCAAACACUGAGAUGUAAUCCAACAGAGGAUUGAGCAUCA
1.06

Report binding signal, nothing else, for this binder: chr7:75956504:75956505:-_ENSG00000170027_ENST00000307630|hu_mus|FALSE|FALSE (ssRNA) RNA: GGGAGUUCUACAGUCCGACGAUCAUAGAACUGCAUGUCACUAUAGCAACAUCCAAAACAGAUCAAUCUGUUACAAUCACUAUUUGGUAAAGCAAACUUUACCCCUGAAAGGAAAAAAUUAAAUUAAAAAAAAGAAGUUUAAAACAACAGAGGAUUGAGCAUCA
9.16

Report binding signal, nothing else, for this binder: chr6:72561926:72561927:-_ENSMUSG00000056429_ENSMUST00000070524|mus_mus|motif|central (ssRNA) RNA: GGGAGUUCUACAGUCCGACGAUCGUAAAUAAAACAUCACCAGAGGAGAGUGUCAUCAAAGUGCCGGUGCAAAACCUGAAGCGGUCCCAUCUCUGCCAGCCCAGACUUGCCACCAAACCCCAGAGGAGGUCACAGUCUUUUCAUCAACAGAGGAUUGAGCAUCA
3.38
